Biological target: T1, PUF4 RNA-binding domain (Saccharomyces cerevisiae, UniProt P25339 537-888)
T1 sequence: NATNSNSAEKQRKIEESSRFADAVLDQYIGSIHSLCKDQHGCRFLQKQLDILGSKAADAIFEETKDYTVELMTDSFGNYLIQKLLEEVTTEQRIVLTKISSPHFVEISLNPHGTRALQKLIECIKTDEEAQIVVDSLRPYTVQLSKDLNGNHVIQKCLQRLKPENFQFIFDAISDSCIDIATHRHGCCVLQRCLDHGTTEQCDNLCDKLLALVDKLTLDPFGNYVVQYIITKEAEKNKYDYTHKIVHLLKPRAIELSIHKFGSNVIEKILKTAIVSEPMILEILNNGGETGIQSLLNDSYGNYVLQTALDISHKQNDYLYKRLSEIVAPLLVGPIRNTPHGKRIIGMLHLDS
Assay: Mg; RNA-MaP; 20 mM Na-HEPES pH 7.4, 30 mM KOAc, 0.75 mM MgCl2, 0.1% Tween-20, 5% glycerol, 0.1 mg/mL BSA, 2 mM DTT; 25 C; 0.0125-409.6 nM protein
Conditions: tags: N-His6-TEV cleaved; C-SNAP kept, Cy3B-labelled; label: tethered on chip by stalled RNA polymerase
Overview of recorded Kd for various binders

(Q) What value of Kd has been reported for the following binder? Ie_S2_P3E.2_K3.1_C3.2_H3.1_[+2TCT]_A3.1_F3.1_T3.2 (ssRNA) RNA: UUUGAUUAAUAUGAUAUCGUUCUUUCUCUUGUCUUAUAUAUAUUCUUUCUCGAUAUCAUAUUAAUCUUU
(A) 15.5 nM

(Q) I am curious: what Kd value has been reported for Id_ii_S4_P5E.3_K5.2_C5.2_[C-2T]_[T-1G]_H5.2_A5.1_F5.1_T5.2_[T11G]_[A12C] (ssRNA) RNA: UUUGACAACUGAUCGUUCUUUCUUGUAUAUUAUUAGCUUCUUUCUCGAUCAGUUGUCUUU ?
(A) 1.12 nM

(Q) Requested read-out: Kd. Entry: Id_ii_S2_P3E.2_K3.1_C3.2_[C-2G]_H3.1_A3.1_F3.1_T3.2_[A10C] (ssRNA) RNA: UUUGAUUAAUAUGAUAUCGUUCUUUCUGUUGUAUAUAUCUUCUUUCUCGAUAUCAUAUUAAUCUUU
(A) 8.98 nM

(Q) Form field: reported Kd of Id_ii_S2_P4E.3_K4.2_C4.2_[C-2A]_[T-1G]_H4.2_A4.1_F4.1_T4.2_[G10A]_[T11A] (ssRNA) RNA: UUUGAUUAAUAUGAUAUCGUUCUUUCUAGUAUAUAUUAAAUUCUUUCUCGAUAUCAUAUUAAUCUUU
(A) 135 nM

(Q) Consider the binder shown here: UCUCUUUGUAACUCUCUCUU (ssRNA) [Ic_S1_P3E.1_K3.1_C3.1_H3.1_A3.1_[T5A]_[A6C]_F3.1_[A8C]_T3.1] What is its recorded Kd?
(A) 373 nM

Further cases:
(Q) Quick check: Kd of Id_iii_S4_P5E.8_K5.4_C5.3_[C-2G]_H5.1_A5.2_F5.1_T5.2 (ssRNA) RNA: UUUGACAACUGAUCGUUCUUUCUUGUUGUAAUAUUAUAUUCUUUCUCGAUCAGUUGUCUUU ?
(A) 11.1 nM

(Q) Would you mind telling me what Kd value was observed for UCUCUUUGUAUAAUCUCUCUU (ssRNA) [Ic_S1_P4E.1_K4.1_C4.1_H4.1_A4.1_[T7A]_F4.1_[A9C]_T4.1] ?
(A) 15.8 nM

(Q) Return reported Kd; argument: Ie_S4_P3E.2_K3.1_C3.2_H3.1_[+3CCC]_A3.1_F3.1_T3.2 (ssRNA) RNA: UUUGACAACUGAUCGUUCUUUCUCUUGUCCCAUAUAUAUUCUUUCUCGAUCAGUUGUCUUU
(A) 13.7 nM

(Q) Entry Ic_S2_P4E.1_K4.1_C4.1_H4.1_A4.1_[T5G]_[A6C]_[T7A]_F4.1_T4.1 (ssRNA) RNA: UUUGAUUAAUAUGAUAUCGUUCUUUCUUGUAGCAUAUUCUUUCUCGAUAUCAUAUUAAUCUUU : reported Kd = ?
(A) 1.41 nM

(Q) Fill blank: measured Kd of the binder UCUCUUUGUAUUACCUCUUUAUCUCUU (ssRNA) [Ie_S1_P5E.1_K5.1_C5.1_H5.1_A5.1_[+7CCTCT]_F5.1_T5.1] is ____.
(A) 412 nM
